# measured on: HCV NS3 helicase NS3h_1b(con1) (Hepatitis C virus genotype 1b, UniProt Q9WMX2)
# Construct: truncated C-terminally His-tagged NS3 proteins lacking the N-terminal protease, called NS3h; His-tag (C); made in house
# Sequence (Q9WMX2 1192-1657): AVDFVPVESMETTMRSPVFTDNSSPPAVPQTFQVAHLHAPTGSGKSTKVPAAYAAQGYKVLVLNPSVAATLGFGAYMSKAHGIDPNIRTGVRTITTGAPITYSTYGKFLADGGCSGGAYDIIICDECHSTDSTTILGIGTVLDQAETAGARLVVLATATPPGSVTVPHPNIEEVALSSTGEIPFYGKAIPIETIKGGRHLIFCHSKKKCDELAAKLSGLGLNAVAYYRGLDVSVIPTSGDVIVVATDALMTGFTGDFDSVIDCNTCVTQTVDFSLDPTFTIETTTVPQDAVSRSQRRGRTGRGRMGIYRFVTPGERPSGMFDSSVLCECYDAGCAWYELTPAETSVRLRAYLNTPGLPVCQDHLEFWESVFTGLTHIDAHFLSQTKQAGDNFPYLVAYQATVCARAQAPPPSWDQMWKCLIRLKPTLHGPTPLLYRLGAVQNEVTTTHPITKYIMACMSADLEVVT
# protocol details: MBHA screen of NCI mechanistic set library at 20 μM (percent inhibition, compound interference)
# Format: biochemical
# measurement conditions: compounds at 20 μM, MBHA with a DNA substrate; calculated from Equation 1
// Inh. (%) (Inhibition) lookup, one value per entry
Give a bare numeral; the unit % is implied.

Below are worked cases with known answers.
IN: Which Inh. (%) (Inhibition) is reported for this compound? CC(=O)N(C)c1ccc(Nc2cc(C)[nH]c3ccc4ncnc4c23)cc1.Cl
OUT: 8.9

IN: // repeat for CC(=O)OC1C(O)C(C)OC(OC2C(OC(=O)C3CCC4C(C3)OC3(CC(OC(=O)/C=C/c5ccccc5)C(C)CO3)C43CO3)OC(C)C(O)C2OC(C)=O)C1O (stereo not shown) and report
OUT: −3.0

Others:
IN: Which Inh. (%) (Inhibition) is reported for this compound? O=C(OCC12CC3CC(CC(C3)C1)C2)c1ccc(NCc2cc(O)ccc2O)cc1
OUT: −22.3

IN: // repeat for O=C(CC(O)(C(F)(F)F)C(F)(F)Cl)CC(O)(C(F)(F)F)C(F)(F)Cl (stereo not shown) and report
OUT: 8.7

IN: // repeat for COC1=C(N)C(=O)c2nc(C)ccc2C1=O and report
OUT: −22.9

IN: // repeat for C/C1=C\[C@H](C)C[C@H](C)OC(=O)CC(c2ccc(O)cc2)NC(=O)[C@@H](Cc2c(Br)[nH]c3ccccc23)N(C)C(=O)[C@H](C)NC(=O)[C@@H](C)C1 (stereo partly shown) and report
OUT: −21.7

IN: // repeat for CCOC(=O)NC(Nc1ccc(F)cc1)(C(=O)OCC)C(F)(F)F (stereo not shown) and report
OUT: −5.0

IN: // repeat for N[C@H](C(=O)O)[C@H]1ON=C(Cl)[C@H]1O and report
OUT: −6.8

IN: // repeat for Cc1nc(-c2cccnc2)sc1C(=O)/C=C/c1ccc(Cl)cc1Cl and report
OUT: −32.9

IN: // repeat for CC1(C)N=C(N)N=C(N)N1c1ccc(CCCCc2ccc(Cl)cc2Cl)cc1 and report
OUT: −42.7

IN: // repeat for COC1CC(O[C@H]2CC[C@]3(C=O)[C@H]4CC[C@]5(C)[C@@H](C6=CC(=O)OC6)CC[C@]5(O)[C@@H]4CC[C@]3(O)C2)OC(C)C1O (stereo partly shown) and report
OUT: −24.0

IN: // repeat for Nc1cc2[nH]cnc2c(=O)[nH]1 and report
OUT: 9.6

IN: // repeat for COC(=O)[C@@H]1[C@H](O)[C@H](C)[C@H](O)[C@H](C)/C=C\C=C(/C)C(=O)Nc2c(C)c(OC(C)=O)c3c(c2O)C(=O)C(C)=C2OCOC(=C23)/C(C)=C/[C@@](C)(O)[C@H](O)[C@@H](C)[C@H]1OC(C)=O and report
OUT: −23.4

IN: // repeat for C=C1CC[C@@H]2[C@](C)(CO)[C@H](O)CC[C@@]2(C)[C@@H]1C/C=C1/C(=O)OC[C@H]1O and report
OUT: 9.4

---

# measured on: HCV NS3 helicase NS3h_1b(con1) (Hepatitis C virus genotype 1b)
# Construct: truncated C-terminally His-tagged NS3 proteins lacking the N-terminal protease, called NS3h; His-tag (C); made in house
# protocol details: biochemical
# Format: biochemical, hepatitis C virus genotype 1b(con1)
# measurement conditions: standard HCV helicase MBHA (Table 9); read-out: DNA Unwinding IC50
// IC50 lookup, one value per entry
Give a bare numeral; the unit µM is implied.

IN: Which IC50 is reported for this compound? Cc1ccc2nc(-c3ccc(NC(=O)c4ccc(NC(=O)c5ccc(C(F)(F)F)cc5)cc4)cc3)sc2c1S(=O)(=O)O.N
OUT: 10

IN: // repeat for Cc1ccc2nc(-c3ccc4nc(-c5ccc(NC(=S)Nc6ccccc6)cc5)sc4c3)sc2c1S(=O)(=O)O.N and report
OUT: 9

IN: // repeat for Cc1ccc2nc(-c3ccc4nc(-c5ccc(NC(=O)c6ccc(C(F)(F)F)cc6)cc5)sc4c3)sc2c1S(=O)(=O)O and report
OUT: 2

IN: // repeat for Cc1ccc2nc(-c3ccc4nc(-c5ccc(NC(=O)c6ccc(F)cc6)cc5)sc4c3)sc2c1S(=O)(=O)O.N and report
OUT: 5

IN: // repeat for Cc1ccc2nc(-c3ccc(NC(=O)c4ccc(NC(=S)Nc5ccccc5)cc4)cc3)sc2c1S(=O)(=O)O.N and report
OUT: 29

Others:
IN: Which IC50 is reported for this compound? Cc1ccc2nc(-c3ccc4nc(-c5ccc(NC(=O)Nc6ccc(C(F)(F)F)cc6)cc5)sc4c3)sc2c1S(=O)(=O)O.N
OUT: 5

IN: // repeat for Cc1ccc2nc(-c3ccc4nc(-c5ccc(NC(=O)c6cc(F)ccc6C(F)(F)F)cc5)sc4c3)sc2c1S(=O)(=O)O and report
OUT: 19
